# targetDesc: PfCRT^Ecu1110 (Plasmodium falciparum, UniProt Q9N623, A220S/I356L/K76T/N326D)
# Sequence (Q9N623 whole entry A220S/I356L/K76T/N326D): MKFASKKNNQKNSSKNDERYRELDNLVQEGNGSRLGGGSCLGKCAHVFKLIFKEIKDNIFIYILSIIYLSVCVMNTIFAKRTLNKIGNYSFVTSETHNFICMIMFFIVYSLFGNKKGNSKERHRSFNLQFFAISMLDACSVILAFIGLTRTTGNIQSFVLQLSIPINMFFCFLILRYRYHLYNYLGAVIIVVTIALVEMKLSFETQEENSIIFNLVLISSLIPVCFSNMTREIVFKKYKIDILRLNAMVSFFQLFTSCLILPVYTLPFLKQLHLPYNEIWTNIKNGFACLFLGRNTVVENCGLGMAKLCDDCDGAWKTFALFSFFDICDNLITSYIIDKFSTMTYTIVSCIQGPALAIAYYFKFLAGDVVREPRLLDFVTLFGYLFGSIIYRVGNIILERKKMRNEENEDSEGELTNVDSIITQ
# protocolNotes: cell-based
# Assay type: cell-based
# settings: PfCRTEcu1110 oocytes; footnote b: highest intracellular concentration tested was 30 mM (solubility); normalised to the oocyte type control (control = 100)
For each record, write down the corresponding Trans-stimulation data: total [3H]CQ transport.
One number for each entry, in b.

Answered examples (2):
sequence: GTFATLSELHCDK [GK-13]
targetDesc: PfCRT^Ecu1110 (Plasmodium falciparum, UniProt Q9N623, A220S/I356L/K76T/N326D)
endpointUnit: b
recordedResult: 99

sequence: NAVAHVDDMPNALSALSDLH [NH-20, additional peptide, 20 residues]
targetDesc: PfCRT^Ecu1110 (Plasmodium falciparum, UniProt Q9N623, A220S/I356L/K76T/N326D)
endpointUnit: b
recordedResult: 100

Problem: // Input: LTPEEKSAVTALWGKVNVDEVGGEA [LA-25, additional peptide, 25 residues] . Output its Trans-stimulation data: total [3H]CQ transport only.
Solution: 101
